experiment: Stability of peptide mixtures under long term and accelerated storage (UPLC); assay type: physicochemical; conditions: peptide in mixture of 6 peptides; Storage at −20 ± 5° C., T3M
Ends that are not written are not given here.
Assay (net peptide content) (mg/vial) values, listed per item

chain	Assay (net peptide content) (mg/vial)
YPALMPLYACIQAKQAFTFSPTYKAFLSKQYMNLYPVAR (cysteinylated cysteine) [SEQ ID 6, HBV Pol fragment SLP with cysteinylated cysteine]	0.22 mg/vial
AARLCCQLDPARDVLCLRPVGAESR [Cystine(C(C)) containing SEQ ID NO: 4]	0.21 mg/vial
LSAMSTTDLEAYFKDCLFKDWEELG [SEQ ID 2]	0.25 mg/vial
VLSRKYTSFPWLLGCTANWILRGTSFVYVPSALNPA [Cystine(C(C)) containing SEQ ID NO: 3] (VLSRKYTSFPWLLGC(Cys)TANWILRGTSFVYVPSALNPA) [HBV Pol fragment SLP with cysteinylated cysteine]	0.25 mg/vial
VVNHYFQTRHYLHTLWKAGILYKRETTRSASFCGSPYSW (VVNHYFQTRHYLHTLWKAGILYKRETTRSASFC(Cys)GSPYSW) [SEQ ID 5, HBV Pol fragment SLP with cysteinylated cysteine]	0.22 mg/vial
HLSLRGLPVCAFSSAGPCALRFTSA [Cystine(C(C)) containing SEQ ID NO: 1]	0.24 mg/vial

// provenance: patent US20260200990A1
